# ASSAYED TARGET: CDK6/cyclin D3 (Homo sapiens) (UniProt P30281+Q00534)
# CONDITION NOTES: at 10 µM
# Description: Millipore: Percentage of residual kinase activity of CDK6 at 10uM relative to control. Control inhibitor: Phosphoric acid* at 0.3uM. Buffer: 8 mM MOPS pH 7.0, 0.2 mM EDTA
ASSAY READOUT: residual activity (%)

>>> print(df.to_string())
                    structure_smiles_string  observed_value
0           Nc1ncnc2[nH]nc(Nc3ccc(F)cc3)c12              78
1  O=C(c1cc2cc(O)ccc2[nH]1)c1cc2cc(O)ccc2[nH]1               7
2  O=C(CCCc1ccc(-c2ccccc2F)cc1)Nc1ccc(O)cc1              98
3  c1ccc(-c2cnc(Nc3ccc(OCCN4CCCC4)cc3)s2)cc1               6
4      COc1ccc(-c2cnc3c(-c4ccsc4)cnn3c2)cc1              96
5  CC(C)(C)n1nc(Cc2cccc3ccccc23)c2c(N)ncnc21              97
6          O=C(c1ccccc1)c1ccc(N2CCOCC2)cc1O              89
7      O=C(Nc1ccc(Cl)cc1)c1ccccc1NCc1ccncc1             102
8  O=C(Nc1nc2ccccc2n1CCN1CCOCC1)c1cccc([N+](=O)[O-])c1              88
9          O=c1cc(N2CCOCC2)oc2c1ccc1ccccc12              89
